In this section we review reported Hypochromic effect H/%, polyA-polyU values for a set of molecules.
System: polyA-polyU
METHOD: UV–Vis titration with polyA-polyU (Scatchard)
Format: binding
SETUP_CONDITIONS: UV–Vis titration, PBS, pH 7; calculated by Scatchard equation

MOLECULAR_STRING: CC(C)NC(=N)c1ccc2[nH]c(-c3ccc(OCc4cn(CSc5ccccc5)nn4)cc3)nc2c1.Cl.Cl
UNITS: %
Hypochromic effect H/%, polyA-polyU: 47.2
--
MOLECULAR_STRING: N=C(N)c1ccc2[nH]c(-c3ccc(OCc4cn(Cc5ccccc5)nn4)cc3)nc2c1
UNITS: %
Hypochromic effect H/%, polyA-polyU: 32.5
--
MOLECULAR_STRING: CC(C)NC(=N)c1ccc2[nH]c(-c3ccc(OCc4cn(-c5ccccc5Cl)nn4)cc3)nc2c1.Cl.Cl
UNITS: %
Hypochromic effect H/%, polyA-polyU: 50.4
--
MOLECULAR_STRING: Cl.Cl.N=C(N)c1ccc2[nH]c(-c3ccc(OCc4cn(-c5ccccc5Cl)nn4)cc3)nc2c1
UNITS: %
Hypochromic effect H/%, polyA-polyU: 38.9
--
MOLECULAR_STRING: COc1ccc(-n2cc(COc3ccc(-c4nc5cc(C(=N)NC(C)C)ccc5[nH]4)cc3)nn2)cc1.Cl.Cl
UNITS: %
Hypochromic effect H/%, polyA-polyU: 57.8
--
MOLECULAR_STRING: Cl.Cl.N=C(N)c1ccc2[nH]c(-c3ccc(OCc4cn(CSc5ccccc5)nn4)cc3)nc2c1
UNITS: %
Hypochromic effect H/%, polyA-polyU: 31.7
--
MOLECULAR_STRING: N=C(N)c1ccc2[nH]c(-c3ccc(OCc4cn(-c5ccccc5)nn4)cc3)nc2c1
UNITS: %
Hypochromic effect H/%, polyA-polyU: 19.3
--
MOLECULAR_STRING: Cl.Cl.Clc1ccccc1-n1cc(COc2ccc(-c3nc4cc(C5=NCCN5)ccc4[nH]3)cc2)nn1
UNITS: %
Hypochromic effect H/%, polyA-polyU: 29.3
--
MOLECULAR_STRING: Cl.Cl.c1ccc(SCn2cc(COc3ccc(-c4nc5cc(C6=NCCN6)ccc5[nH]4)cc3)nn2)cc1
UNITS: %
Hypochromic effect H/%, polyA-polyU: 31.6
--
MOLECULAR_STRING: CC(C)NC(=N)c1ccc2[nH]c(-c3ccc(OCc4cn(-c5ccccc5)nn4)cc3)nc2c1
UNITS: %
Hypochromic effect H/%, polyA-polyU: 46.5
--
MOLECULAR_STRING: CC(C)NC(=N)c1ccc2[nH]c(-c3ccc(OCc4cn(Cc5ccccc5)nn4)cc3)nc2c1
UNITS: %
Hypochromic effect H/%, polyA-polyU: 53.8

---

Tested on: polyA-polyU
METHOD: Thermal melting (ΔTm) of polyA-polyU
Type: binding
SETUP_CONDITIONS: r = 0.3; first melting midpoint
# note: boundary value 3 °C maps to No; ΔTm, polyA-polyU, r = 0.3 below it maps to Yes

MOLECULE: CC(C)NC(=N)c1ccc2[nH]c(-c3ccc(OCc4cn(Cc5ccccc5)nn4)cc3)nc2c1 [Compound 8d]
CLASSIFICATION: Yes
//
MOLECULE: Cl.Cl.Clc1ccccc1-n1cc(COc2ccc(-c3nc4cc(C5=NCCN5)ccc4[nH]3)cc2)nn1 [Compound 9c]
CLASSIFICATION: No
//
MOLECULE: Cl.Cl.N=C(N)c1ccc2[nH]c(-c3ccc(OCc4cn(CSc5ccccc5)nn4)cc3)nc2c1 [Compound 7e]
CLASSIFICATION: Yes
//
MOLECULE: COc1ccc(-n2cc(COc3ccc(-c4nc5cc(C6=NCCN6)ccc5[nH]4)cc3)nn2)cc1.Cl.Cl [Compound 9b]
CLASSIFICATION: Yes
//
MOLECULE: CC(C)NC(=N)c1ccc2[nH]c(-c3ccc(OCc4cn(-c5ccccc5Cl)nn4)cc3)nc2c1.Cl.Cl [Compound 8c]
CLASSIFICATION: Yes
//
MOLECULE: N=C(N)c1ccc2[nH]c(-c3ccc(OCc4cn(Cc5ccccc5)nn4)cc3)nc2c1 [Compound 7d]
CLASSIFICATION: Yes
